- measured on: FXRα2 (Homo sapiens, UniProt Q96RI1)
- Sequence (Q96RI1 1-472 isoform Q96RI1-2): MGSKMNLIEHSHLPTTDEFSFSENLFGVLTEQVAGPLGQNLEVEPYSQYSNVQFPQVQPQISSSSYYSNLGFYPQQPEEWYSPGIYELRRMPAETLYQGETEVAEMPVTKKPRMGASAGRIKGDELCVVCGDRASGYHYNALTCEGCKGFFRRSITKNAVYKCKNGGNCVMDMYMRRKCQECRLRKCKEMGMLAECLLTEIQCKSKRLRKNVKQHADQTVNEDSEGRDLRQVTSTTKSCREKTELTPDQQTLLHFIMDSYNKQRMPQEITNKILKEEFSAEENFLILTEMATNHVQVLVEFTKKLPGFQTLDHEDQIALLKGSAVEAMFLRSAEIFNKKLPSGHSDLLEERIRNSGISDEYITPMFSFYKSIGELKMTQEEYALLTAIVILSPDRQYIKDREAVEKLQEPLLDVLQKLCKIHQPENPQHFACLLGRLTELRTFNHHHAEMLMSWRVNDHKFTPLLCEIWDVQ
- Sequence (P19793 1-462 partner): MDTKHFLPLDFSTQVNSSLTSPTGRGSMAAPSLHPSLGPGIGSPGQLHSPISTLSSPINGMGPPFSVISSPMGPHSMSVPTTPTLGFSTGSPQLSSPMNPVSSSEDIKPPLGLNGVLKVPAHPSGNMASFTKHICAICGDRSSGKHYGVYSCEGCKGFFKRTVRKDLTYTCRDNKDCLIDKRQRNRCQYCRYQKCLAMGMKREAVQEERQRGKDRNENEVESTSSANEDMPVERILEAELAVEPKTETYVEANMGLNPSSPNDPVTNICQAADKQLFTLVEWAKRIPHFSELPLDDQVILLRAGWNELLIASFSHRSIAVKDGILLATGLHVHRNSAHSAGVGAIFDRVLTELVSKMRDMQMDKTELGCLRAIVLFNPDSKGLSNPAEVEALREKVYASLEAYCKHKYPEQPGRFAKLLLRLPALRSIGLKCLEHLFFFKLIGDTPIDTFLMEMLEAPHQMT
- assay conditions: read-out: EC50 of FXR transactivation; agonist mode, 0-100 μM, 24 hours
Structures can show the parent of a compound that is named as a salt.
property name: pEC50
As a rule, pEC50 stands for the negative log10 of the concentration, concentration in M.

compound	pEC50
CC(=O)C1CCC2C3CC[C@@H]4C[C@@H](OS(=O)(=O)O)CC[C@]4(C)C3CC[C@]12C (stereo partly drawn) [EPS, epipregnanolone sulfate]	4.82

# evaluate next
input: What does the record list as pEC50 for C[C@H](O)[C@H]1CC[C@H]2[C@@H]3CC[C@H]4C[C@@H](OS(=O)(=O)[O-])CC[C@]4(C)[C@H]3CC[C@]12C.[Na+] [EPAS, epiallo-pregnanediol 3-sodium sulfate] ?
output: 4.65
